- Assayed target: T1, recombinant human PD-L2-Fc-biotin (human, UniProt Q9BQ51 20-220, biotin)
- T1 chain: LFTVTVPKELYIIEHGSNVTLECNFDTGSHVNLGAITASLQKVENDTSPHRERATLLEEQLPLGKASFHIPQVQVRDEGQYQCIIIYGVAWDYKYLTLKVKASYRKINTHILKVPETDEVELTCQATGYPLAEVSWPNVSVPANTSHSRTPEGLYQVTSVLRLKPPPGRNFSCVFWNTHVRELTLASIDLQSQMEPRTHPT
- Test summary: blocking of PD-L2 - PD-1 interaction (cell binding); low antigen concentration
Assign pIC50 to each entry below.
Answers are plain numbers, as −log10 of the molar value.

19B3-B3 (antibody, V domains shown, Both formats under this entry) VH: QVQLVQSGAEVKKPGASVKVSCMASGYTFTNYAIHWVRQAPGQRLEWMGWINTGLGKPKYSQMFQDRVTITRDTSASTASMELSGLRSDDTAVYYCARVGWELYFDYWGQGTLVTVSS VL: DIQMTQSPSTLSASVGDRVTITCRASQSISSLLAWYQQKPGKAPKLLIYKASSLESGVPSRFSGSGSGTEFTLTISSLQPDDFATYFCQQYNSYWTFGQGTKVEIK; 10.61
12A1-D4 (antibody, V domains shown, Both formats under this entry) VH: QVQLQESGPGLVKPSGTLSLTCAVSGGSISSNNWWSWVRQPPGKGLEWIGEIFHVGSTNYNPSLKSRVTISVDKSKNQFSLKLSSLTAADTAVYYCARMVGATGHYYGMDVWGQGTTVTVSS VL: DIQLTQSPSFLSASVGDRVTITCRASQGISSSLAWYQQKPGKAPKFLIYAASTLQSGVPSRFSGSGSGTEFTLTISSLQPEDFATYYCQQLNSYPKSWTFGQGTKVEIK; 10.99

Look up pIC50 for this binder: 9A3-C7 (antibody, V domains shown, Both formats under this entry) VH: QVQLVESGGGLVKPGGSLRLSCAASGFSLSDYYMSWIRQAPGRGLEWVSYISSSGSTIYYVDSVKGRFTISRDNAKNSLYLQINSLRAEDTAVYHCARAQWLPDFDYWGQGTLVTVSS VL: QSALTQPPSASGSPGQSVTISCTGTSSDVGGYNYVSWYQHHPGKVPKLMIYEVSKRPSGVPDRFSGSKSGNTASLTVSGLQAEDEADYYCTSFADNNNVGFGGGTKLTVLG 10.43
